Can you tell me pIC50 for the items I'm about to list?
- Target Or Test System: Inhibitor of nuclear factor kappa-B kinase subunit beta (Homo sapiens)
- Sequence (O14920 whole entry): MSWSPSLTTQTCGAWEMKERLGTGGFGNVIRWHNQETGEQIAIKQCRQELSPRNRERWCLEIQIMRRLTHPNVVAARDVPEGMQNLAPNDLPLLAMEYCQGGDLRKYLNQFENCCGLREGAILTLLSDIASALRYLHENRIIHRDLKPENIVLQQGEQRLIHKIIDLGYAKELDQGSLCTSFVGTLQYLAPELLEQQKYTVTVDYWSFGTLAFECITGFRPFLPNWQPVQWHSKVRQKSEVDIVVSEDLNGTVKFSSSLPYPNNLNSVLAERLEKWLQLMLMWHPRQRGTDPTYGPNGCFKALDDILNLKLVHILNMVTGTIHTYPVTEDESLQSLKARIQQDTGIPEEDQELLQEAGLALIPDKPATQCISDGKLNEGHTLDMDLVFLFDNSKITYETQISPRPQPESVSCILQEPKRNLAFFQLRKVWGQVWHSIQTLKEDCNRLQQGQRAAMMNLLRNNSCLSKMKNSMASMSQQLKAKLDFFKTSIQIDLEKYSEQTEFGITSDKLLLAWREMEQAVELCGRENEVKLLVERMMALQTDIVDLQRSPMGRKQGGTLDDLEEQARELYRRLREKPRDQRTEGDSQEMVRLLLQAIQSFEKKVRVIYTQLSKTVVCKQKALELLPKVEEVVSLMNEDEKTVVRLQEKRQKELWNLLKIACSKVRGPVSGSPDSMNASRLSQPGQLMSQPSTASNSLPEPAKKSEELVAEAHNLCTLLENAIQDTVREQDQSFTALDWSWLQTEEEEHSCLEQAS
- Test Method Notes: Inhibitory activity against IKK2
Lab note: report pIC50 as minus log10 of the concentration in molar units, number only.

Value lookup for pIC50; key = CN(C)CCNC(=O)c1ccc(Nc2nccc(-c3cc4ccccc4s3)n2)cc1
6.70

Same question for COCCCc1ccc(-c2ccnc(Nc3ccc(C(=O)N4CCC(N5CCCC5)CC4)cc3)n2)s1 please.
7.00

Same question for CC(C)(N)CCc1ccc(-c2ccnc(Nc3ccc(C(=O)N4CCC(N5CCCC5)CC4)cc3)n2)s1 please.
7.40

Same question for O=C(c1ccc(Nc2nccc(-c3cc4ccccc4s3)n2)cc1)N1CCCC1 please.
6.05

Same question for O=C(O)c1cccc(Nc2nccc(-c3cc4ccccc4s3)n2)c1 please.
6.00

Same question for CC(C)(N)C#Cc1ccc(-c2ccnc(Nc3ccc(C(=O)N4CCC(N5CCCC5)CC4)cc3)n2)s1 please.
6.82

Same question for CN(C)C1CCN(C(=O)c2ccc(Nc3nccc(-c4cc5ccccc5s4)n3)cc2)CC1 please.
7.40

Same question for CC(=O)NC(C)(C)CCc1ccc(-c2ccnc(Nc3ccc(C(=O)N4CCC(N5CCCC5)CC4)cc3)n2)s1 please.
6.82

Same question for CCC(N)(CC)CCc1ccc(-c2ccnc(Nc3ccc(C(=O)N4CCC(N5CCCC5)CC4)cc3)n2)s1 please.
7.22
